target.desc: CYP3A (Homo sapiens)
Sequence (P08684 2-503): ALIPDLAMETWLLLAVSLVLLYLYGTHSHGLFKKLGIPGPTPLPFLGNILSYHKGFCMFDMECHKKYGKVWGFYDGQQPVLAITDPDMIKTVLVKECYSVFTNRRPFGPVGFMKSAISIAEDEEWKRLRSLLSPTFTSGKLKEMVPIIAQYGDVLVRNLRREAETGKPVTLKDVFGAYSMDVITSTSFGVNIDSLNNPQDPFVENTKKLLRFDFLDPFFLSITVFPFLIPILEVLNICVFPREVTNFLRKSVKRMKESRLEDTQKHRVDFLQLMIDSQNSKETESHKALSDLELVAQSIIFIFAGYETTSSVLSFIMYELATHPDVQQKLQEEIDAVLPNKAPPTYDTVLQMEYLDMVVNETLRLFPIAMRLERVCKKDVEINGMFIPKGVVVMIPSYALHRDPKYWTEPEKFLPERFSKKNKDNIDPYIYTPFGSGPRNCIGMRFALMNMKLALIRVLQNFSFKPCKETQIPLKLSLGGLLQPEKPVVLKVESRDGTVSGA
protocol.description: CYP3A inhibition in HLMs (midazolam, nifedipine, testosterone);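 also: pooled HLMs at 0.25 mg/mL in phosphate buffer, inhibitor across 0–50 µM, 10 min reaction at 37 °C after preincubation, probe metabolite quantified by LC-MS/MS, triplicate incubations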
experimental.parameters: pooled human liver microsomes, pH 7.4, probe testosterone (cocktail set B), IC50 TDI, CYP3A (testosterone), HLMs, testosterone, 30 min pre-incubation with NADPH generating system
Here the recorded IC50 at 10 min is given for each entry.

- sample.smiles: "COc1cc2c(c(OC)c1OC)-c1c(cc3c(c1OC)OCO3)C[C@H](C)[C@](C)(O)[C@H]2OC(=O)c1ccccc1"
  unit.of.measure: "nM"
  IC50 at 10 min: 90
- sample.smiles: "COc1cc2c(c(OC)c1OC)-c1c(cc(OC)c(OC)c1OC)C[C@](C)(O)[C@@H](C)C2"
  unit.of.measure: "nM"
  IC50 at 10 min: 20600
- sample.smiles: "COc1cc2c(c(OC)c1OC)-c1c(cc3c(c1OC)OCO3)C[C@H](C)[C@H](C)C2"
  unit.of.measure: "nM"
  IC50 at 10 min: 550

###

Here the recorded pIC50 is given for each entry.
target.desc: CYP2A6 (Homo sapiens)
Construct: pooled HLMs (0.25 mg/mL); tissue XenoTech H2630; host or cells: pooled human liver microsomes, mixed gender
Sequence (P11509 1-494): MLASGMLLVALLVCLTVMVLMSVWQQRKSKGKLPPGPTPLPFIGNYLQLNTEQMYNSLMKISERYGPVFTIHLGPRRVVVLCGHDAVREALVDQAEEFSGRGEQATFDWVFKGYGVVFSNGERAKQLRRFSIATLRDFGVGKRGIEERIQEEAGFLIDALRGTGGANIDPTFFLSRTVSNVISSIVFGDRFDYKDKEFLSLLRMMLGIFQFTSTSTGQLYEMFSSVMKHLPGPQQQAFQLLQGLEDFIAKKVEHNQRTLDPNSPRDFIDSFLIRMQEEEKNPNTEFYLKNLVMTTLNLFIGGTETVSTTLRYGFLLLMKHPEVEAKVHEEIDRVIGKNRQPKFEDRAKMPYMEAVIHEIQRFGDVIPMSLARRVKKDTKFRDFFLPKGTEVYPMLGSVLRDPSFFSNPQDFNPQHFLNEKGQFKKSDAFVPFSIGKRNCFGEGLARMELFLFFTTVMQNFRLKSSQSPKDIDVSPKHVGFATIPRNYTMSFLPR
protocol.description: CYP2A6 inhibition in HLMs (coumarin)
Format: in vitro ADME
experimental.parameters: reversible inhibition, read-out: IC50 RI, CYP2A6
pIC50: −log10 of the molar value.
property: pIC50

- sample.smiles: "COc1c2c(cc3c1-c1c(cc4c(c1OC)OCO4)C[C@H](C)[C@H](C)C3)OCO2"
  comparison.operator: "<"
  val: 4.30
- sample.smiles: "COc1cc2c(c(OC)c1OC)-c1c(cc3c(c1OC)OCO3)C[C@H](C)[C@](C)(O)[C@H]2OC(=O)c1ccccc1"
  comparison.operator: "<"
  val: 4.30
- sample.smiles: "COc1cc2c(c(OC)c1OC)-c1c(cc(OC)c(OC)c1OC)C[C@](C)(O)[C@@H](C)C2"
  comparison.operator: "="
  val: 4.39
- sample.smiles: "COc1cc2c(c(OC)c1OC)-c1c(cc3c(c1OC)OCO3)C[C@H](C)[C@H](C)C2"
  comparison.operator: "="
  val: 4.42

###

target.desc: CYP1A2 (Homo sapiens)
Construct: pooled HLMs (0.25 mg/mL); tissue XenoTech H2630; host or cells: pooled human liver microsomes, mixed gender
Sequence (P05177 whole entry): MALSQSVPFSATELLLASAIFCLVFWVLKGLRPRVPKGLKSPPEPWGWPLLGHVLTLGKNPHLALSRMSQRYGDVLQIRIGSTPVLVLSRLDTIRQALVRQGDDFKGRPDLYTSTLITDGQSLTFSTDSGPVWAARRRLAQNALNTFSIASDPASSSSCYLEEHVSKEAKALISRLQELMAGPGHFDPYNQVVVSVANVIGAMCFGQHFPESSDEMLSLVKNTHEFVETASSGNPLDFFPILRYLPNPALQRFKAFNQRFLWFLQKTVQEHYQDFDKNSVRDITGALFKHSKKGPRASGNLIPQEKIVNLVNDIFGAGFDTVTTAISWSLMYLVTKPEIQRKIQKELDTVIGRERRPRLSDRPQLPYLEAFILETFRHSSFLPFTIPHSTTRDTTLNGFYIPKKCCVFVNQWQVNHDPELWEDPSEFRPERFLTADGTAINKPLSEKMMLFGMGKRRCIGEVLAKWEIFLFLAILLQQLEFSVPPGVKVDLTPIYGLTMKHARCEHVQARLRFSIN
protocol.description: CYP1A2 inhibition in HLMs (phenacetin, cocktail, IC50 and IC50 shift)
Assay type: in vitro ADME
experimental.parameters: IC50 TDI, CYP1A2, HLMs, 30 min pre-incubation with NADPH generating system
Description: Lignans were first dissolved in methanol. […] All microsomal incubations were performed in triplicate.

- sample.smiles: "COc1cc2c(c(OC)c1OC)-c1c(cc(OC)c(OC)c1OC)C[C@](C)(O)[C@@H](C)C2"
  IC50: "> 50 µM"
